Test system: ANKA strain of P. berghei
assay_protocol: single dose STI in vivo screen in infected mice
Set-up: species or system Plasmodium berghei
setup_conditions: single 10 mg/kg sc in 3% ethanol and 7% Tween 80; untreated control 5.6 ± 0.3
# strict inequality: Survival (days) sc < 8 days yields Fulfilled, everything else yields Not fulfilled

Hi there! Is Survival (days) sc for c1ccc2c(c1)COC1(CCC3(CC1)OOC1(O3)C3CC4CC(C3)CC1C4)OC2 (stereo not shown) below 8 days, do you know? Not fulfilled

Also check N#CC1(c2ccc(Cl)c(Cl)c2)CCC2(CC1)OOC1(O2)C2CC3CC(C2)CC1C3 (stereo not shown) Fulfilled

Also check O=C(O)C1(C(=O)O)COC2(CCC3(CC2)OOC2(O3)C3CC4CC(C3)CC2C4)OC1 (stereo not shown) Fulfilled

Also check c1c[nH]c([C@H]2CC[C@]3(CC2)OOC2(O3)C3CC4CC(C3)CC2C4)n1 (stereo partly shown) Not fulfilled

Also check O=S(=O)(c1ccc(Cl)cc1)N1CCC2(CC1)OOC1(O2)C2CC3CC(C2)CC1C3 (stereo not shown) Fulfilled

Also check O=C(O)C1(c2ccccc2)CCC2(CC1)OOC1(O2)C2CC3CC(C2)CC1C3 (stereo not shown) Fulfilled

Also check [N-]=[N+]=NCC[C@H]1CC[C@]2(CC1)OOC1(O2)C2CC3CC(C2)CC1C3 (stereo partly shown) Not fulfilled

Also check CN(C)C(=O)N[C@H]1CC[C@]2(CC1)OOC1(O2)C2CC3CC(C2)CC1C3 (stereo partly shown) Fulfilled

Also check N=C(N)NN=C1CCC2(CC1)OOC1(O2)C2CC3CC(C2)CC1C3 (stereo not shown) Not fulfilled

Also check O=[N+]([O-])c1ccc(N2CCC3(CC2)OOC2(O3)C3CC4CC(C3)CC2C4)cc1 (stereo not shown) Not fulfilled

Also check c1ccc(C2(c3ccccn3)OOC3(O2)C2CC4CC(C2)CC3C4)nc1 (stereo not shown) Fulfilled

Also check CS(=O)(=O)NC[C@H]1CC[C@]2(CC1)OOC1(O2)C2CC3CC(C2)CC1C3 (stereo partly shown) Not fulfilled

Also check O=C(C[C@H]1CC[C@]2(CC1)OOC1(O2)C2CC3CC(C2)CC1C3)N1CCOCC1 (stereo partly shown) Not fulfilled

Also check O=C(O)c1cccc([C@H]2CC[C@]3(CC2)OOC2(O3)C3CC4CC(C3)CC2C4)c1 (stereo partly shown) Fulfilled

Also check CCN(CC)CC[C@H]1CC[C@]2(CC1)OOC1(O2)C2CC3CC(C2)CC1C3 (stereo partly shown) Not fulfilled

Also check O=C(Cn1ccnc1)N1CCC2(CC1)OOC1(O2)C2CC3CC(C2)CC1C3 (stereo not shown) Fulfilled

Also check C1C2CC3CC1CC(C2)C31OO[C@]2(CC[C@@H](CNC3CC3)CC2)O1 (stereo partly shown) Not fulfilled

Also check Cc1ccc(NC(=O)N2CCC3(CC2)OOC2(O3)C3CC4CC(C3)CC2C4)cc1 (stereo not shown) Not fulfilled

Also check O=C(C[C@H]1CC[C@]2(CC1)OOC1(O2)C2CC3CC(C2)CC1C3)N1CCCCC1 (stereo partly shown) Not fulfilled

Also check FC(F)(F)c1cccc(C2(c3cccc(C(F)(F)F)c3)OOC3(O2)C2CC4CC(C2)CC3C4)c1 (stereo not shown) Fulfilled

Also check O=C(O)COCC(=O)N1CCC2(CC1)OOC1(O2)C2CC3CC(C2)CC1C3 (stereo not shown) Fulfilled

Also check COC(=O)c1cncn1C[C@H]1CC[C@]2(CC1)OOC1(O2)C2CC3CC(C2)CC1C3 (stereo partly shown) Not fulfilled

Also check O=C(c1ccncc1)N1CCC2(CC1)OOC1(O2)C2CC3CC(C2)CC1C3 (stereo not shown) Fulfilled

Also check COC1(c2ccc(F)cc2)CCC2(CC1)OOC1(O2)C2CC3CC(C2)CC1C3 (stereo not shown) Not fulfilled

Also check CC(C)(C)C1CCC2(CC1)OOC1(O2)C2CC3CC(C2)CC1C3 (stereo not shown) Fulfilled

Also check Fc1ccc(C2(c3ccc(F)cc3)OOC3(CCC(c4ccccc4)CC3)O2)cc1 (stereo not shown) Fulfilled

Also check CCN(CC)C(=O)C1CCC2(CC1)OOC1(O2)C2CC3CC(C2)CC1C3 (stereo not shown) Fulfilled

Also check O=C(OC[C@H]1CC[C@]2(CC1)OOC1(O2)C2CC3CC(C2)CC1C3)n1ccnc1 (stereo partly shown) Not fulfilled

Also check O=C(O)c1cn(C[C@H]2CC[C@]3(CC2)OOC2(O3)C3CC4CC(C3)CC2C4)cn1 (stereo partly shown) Fulfilled

Also check CC1(C)CC(C)(C)CC2(C1)OOC1(O2)C2CC3CC(C2)CC1C3 (stereo not shown) Not fulfilled
